This section presents molecules with their documented pIC50 values.
- system_tested: JNK3 (Homo sapiens, UniProt P53779)
- Sequence (P53779 whole entry): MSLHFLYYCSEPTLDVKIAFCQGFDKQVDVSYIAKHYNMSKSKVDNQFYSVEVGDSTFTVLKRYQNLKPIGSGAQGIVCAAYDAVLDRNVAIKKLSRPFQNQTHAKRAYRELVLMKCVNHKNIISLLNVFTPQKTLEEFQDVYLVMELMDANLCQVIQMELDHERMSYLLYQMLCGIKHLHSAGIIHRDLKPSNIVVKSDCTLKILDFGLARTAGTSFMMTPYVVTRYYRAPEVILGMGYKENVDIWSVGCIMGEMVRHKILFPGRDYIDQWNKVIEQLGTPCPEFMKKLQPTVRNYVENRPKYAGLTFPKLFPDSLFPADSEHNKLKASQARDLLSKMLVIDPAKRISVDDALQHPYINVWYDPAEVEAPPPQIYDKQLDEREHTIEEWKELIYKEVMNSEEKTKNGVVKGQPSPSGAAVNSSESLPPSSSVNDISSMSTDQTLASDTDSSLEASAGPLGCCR
- experiment: JNK3 in vitro assay (c-jun phosphorylation, 33P incorporation, SPA)
- setup_conditions: recombinant pre-activated GST-JNK3, biotinylated GST-c-Jun, 2 μM 33γ-ATP
pIC50: −log10 of the molar value.

>  <molecule>
COc1cccc(C(=O)NCc2cc(C(=O)O)c(S(=O)(=O)N3CCC(Nc4cccc(S(=O)(=O)C(F)(F)F)c4)CC3)s2)c1 [Example 1]

>  <pIC50>
> 7.00

$$$$

Then there is this molecule:
The recorded pIC50 for COc1cccc(C(=O)NCc2cc(C(=O)O)c(S(=O)(=O)N3CCC(NCc4ccc(C(F)(F)F)cc4)CC3)s2)c1 [Example 4] is > 7.00
